- target entity: Nucleotide-binding oligomerization domain-containing protein 1 (Homo sapiens) (UniProt Q9Y239)
- Sequence (Q9Y239 whole entry, the tested form may be a part): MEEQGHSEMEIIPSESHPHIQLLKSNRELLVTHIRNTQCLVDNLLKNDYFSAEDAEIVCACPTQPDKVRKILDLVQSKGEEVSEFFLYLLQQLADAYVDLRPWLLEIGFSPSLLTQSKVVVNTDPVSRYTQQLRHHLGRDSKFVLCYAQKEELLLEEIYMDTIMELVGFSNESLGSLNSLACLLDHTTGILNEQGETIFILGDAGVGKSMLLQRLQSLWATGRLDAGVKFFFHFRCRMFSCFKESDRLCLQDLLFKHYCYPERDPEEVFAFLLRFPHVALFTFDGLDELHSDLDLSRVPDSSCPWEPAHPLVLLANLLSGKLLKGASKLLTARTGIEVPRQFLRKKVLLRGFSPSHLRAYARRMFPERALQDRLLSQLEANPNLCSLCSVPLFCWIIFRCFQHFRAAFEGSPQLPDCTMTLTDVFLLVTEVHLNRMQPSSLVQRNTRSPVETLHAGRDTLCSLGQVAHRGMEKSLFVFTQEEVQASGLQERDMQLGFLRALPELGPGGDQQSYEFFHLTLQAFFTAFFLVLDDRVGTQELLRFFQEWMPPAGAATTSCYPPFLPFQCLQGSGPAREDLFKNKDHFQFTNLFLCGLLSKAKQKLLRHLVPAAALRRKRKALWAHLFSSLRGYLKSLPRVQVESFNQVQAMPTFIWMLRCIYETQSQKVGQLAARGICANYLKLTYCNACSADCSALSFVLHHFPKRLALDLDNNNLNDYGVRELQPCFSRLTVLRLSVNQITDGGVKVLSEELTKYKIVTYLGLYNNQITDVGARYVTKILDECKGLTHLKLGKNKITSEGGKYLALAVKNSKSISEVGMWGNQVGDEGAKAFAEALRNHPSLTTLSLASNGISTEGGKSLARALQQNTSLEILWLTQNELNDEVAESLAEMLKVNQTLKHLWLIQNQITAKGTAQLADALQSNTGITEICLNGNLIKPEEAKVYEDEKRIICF
- assay remarks: Antagonist activity at human NOD1 expressed in HEK-Blue cells assessed as inhibition of C12-iE-DAP-stimulated cell activation at 10 uM preincubated for 3 hrs followed by C12-iE-DAP addition measured after 20 hrs by SEAP reporter gene assay
- Format: cell-based
parameter measured: inhibition (%)
The answer is to be given in %; state only the numeric part.

{"columns": ["molecular string", "inhibition / %"],
 "data": [
  ["CN(C)C(=O)CC[C@H]1NC(=O)c2cc(Oc3cccc(N(C)C)c3)c(NC(=O)COCc3ccccc3)cc2NC1=O", 68]
]}

Given the compound COC(=O)CC[C@H]1NC(=O)c2cc(Oc3ccccc3)c(NC(=O)Nc3ccc(F)cc3)cc2NC1=O , write its reported inhibition.
-9.85

Given the compound COC(=O)CC[C@H]1NC(=O)c2cc(Oc3cc(N(C)C)cc(Cl)c3Cl)c(NC(=O)COCc3ccccc3)cc2NC1=O , write its reported inhibition.
1.4

Given the compound CCCCCCCCCN1C(=O)[C@@H](CCC(=O)N2CCOCC2)N(C)C(=O)c2ccc(Cl)cc21 , write its reported inhibition.
29.7

Given the compound NC(=O)CC[C@H]1NC(=O)c2cc(Oc3cccc4ccccc34)c(NC(=O)/C=C\c3ccc(F)cc3Cl)cc2NC1=O , write its reported inhibition.
70.6

Given the compound CCCCN(CCCC)c1cc2c(cc1NC(=O)/C=C/c1ccc(F)cc1Cl)NC(=O)[C@@H](CCC(=O)OC)NC2=O , write its reported inhibition.
76.5

Given the compound COC(=O)CC[C@H]1NC(=O)c2cc(Oc3cccc(N(C)C)c3)c(NC(=O)COCc3ccc(F)cc3)cc2NC1=O , write its reported inhibition.
46.4

Given the compound COC(=O)CC[C@H]1NC(=O)c2cc(Oc3cccc(N(C)C)c3Cl)c(NC(=O)COCc3ccccc3)cc2NC1=O , write its reported inhibition.
44.2

Given the compound COC(=O)CC[C@H]1NC(=O)c2cc(Oc3cc(Cl)cc(N(C)C)c3)c(NC(=O)COCc3ccccc3)cc2NC1=O , write its reported inhibition.
4.89

Given the compound CCCCCCCCCN1C(=O)[C@@H](CCC(=O)NCc2cccnc2)N(C)C(=O)c2ccc(Cl)cc21 , write its reported inhibition.
54.8

====

- target entity: Nucleotide-binding oligomerization domain-containing protein 1 (Homo sapiens)
- assay remarks: Antagonist activity at human NOD1 expressed in HEK-blue cells assessed as inhibition of C12-iE-DAP-stimulated cell activation at 5 uM preincubated for 3 hrs followed by C12-iE-DAP addition measured after 20 hrs by SEAP reporter gene assay
- Assay type: cell-based
inhibition reference
Put your answer as a value accompanied by its unit after it.

Solved entries (count: 3):
{"columns": ["molecular string", "inhibition"],
 "data": [
  ["COC(=O)CC[C@H]1NC(=O)c2cc(Oc3cc(N(C)C)ccc3Cl)c(NC(=O)COCc3ccccc3)cc2NC1=O", "24.8%"],
  ["COC(=O)CC[C@H]1NC(=O)c2cc(Oc3ccc(Cl)c(N(C)C)c3)c(NC(=O)COCc3ccccc3)cc2NC1=O", "58.2%"],
  ["CN(C)c1cccc(Oc2cc3c(cc2NC(=O)COCc2ccc(C(F)(F)F)cc2)NC(=O)[C@@H](CCC(=O)N2CCC(F)CC2)NC3=O)c1", "90.2%"]
]}

Report measured inhibition on Nucleotide-binding oligomerization domain-containing protein 1 (Homo sapiens); entry: CN(C)c1cccc(Oc2cc3c(cc2NC(=O)COCc2ccc(C(F)(F)F)cc2)NC(=O)CNC3=O)c1
38%

Report measured inhibition on Nucleotide-binding oligomerization domain-containing protein 1 (Homo sapiens); entry: COC(=O)CC[C@H]1NC(=O)c2cc(Oc3cc(Cl)cc(N(C)C)c3)c(NC(=O)COCc3ccccc3)cc2NC1=O
47.1%

Report measured inhibition on Nucleotide-binding oligomerization domain-containing protein 1 (Homo sapiens); entry: CCCCNC(=O)CC[C@H]1NC(=O)c2cc(Oc3cccc(N(C)C)c3)c(NC(=O)COCc3ccccc3)cc2NC1=O
81.8%

Report measured inhibition on Nucleotide-binding oligomerization domain-containing protein 1 (Homo sapiens); entry: COC(=O)CC[C@H]1NC(=O)c2cc(Oc3cccc(N(C)C)c3)c(NC(=O)COCc3ccoc3)cc2NC1=O
34.9%

Reference for the values: ChEMBL document CHEMBL4014339
